- Tested on: HeLa MZ
- measurement.notes: filipin (cholesterol) integrated intensity within LBPA endosomes, Z-score; higher = more cholesterol in LBPA endosomes
- condition.label: compound concentration in added solution (µM; 5 µl added to 20 µl cells): 10; 18 h
Give measured filipin (z-score) for each item. Keep answers brief.
Answers are plain numbers.

The examples below pair each entry with its known result.
C[C@H]1[C@H](NC(=O)/C(=N\OC(C)(C)C(=O)O)c2csc(N)n2)C(=O)N1S(=O)(=O)O [Aztreonam] | -0.607
O=C1C(O)=C(O)C(=O)C(O)=C1O [Tetrahydroxy-1,4-quinone monohydrate] | -0.442
Nc1ccc(S(=O)(=O)c2ccc(N)cc2)cc1 [Dapsone] | -0.603

Write down measured filipin (z-score) (HeLa MZ) for this compound. CN1CCN(c2c(F)cc3c(=O)c(C(=O)O)cn4c3c2SCC4)CC1 [Rufloxacin] -0.17
